Tested on: Polygonum convolvulus (POLCO)
Experiment: Post-emergence herbicidal action against POLCO
Assay type: in vivo
Conditions: dosage 80 g/ha
# Post-emergence action against POLCO in % values compiled below
Answer with a number only, understood to be in %.

molecule | assayValue
CCOC(=O)[C@@H](C)Oc1nn(-c2ccccn2)c(-c2cncc(F)c2)c1Cl | 80
CCOC(=O)COc1nn(-c2ncccc2F)c(-c2ccc(F)nc2)c1C(F)(F)F | 80

Turning now to a further molecule:
Problem: Return the recorded Post-emergence action against POLCO in % value; entry: COC(=O)CCOC(=O)C(C)Oc1nn(-c2ccccn2)c(-c2ccc(F)nc2)c1C(F)(F)F (stereo not drawn)
Solution: 80

====

The entries below come with measured Post-emergence action against SETVI in % values attached.
System: Setaria viridis (SETVI)
Assay: Post-emergence herbicidal action against SETVI
Assay type: in vivo
Conditions: dosage 80 g/ha
# number only, unit % dropped from output

compound | systemUnderTest | valueUnit | Post-emergence action against SETVI in %
C[C@@H](Oc1nn(-c2ncccc2F)c(-c2ccc(F)nc2)c1I)C(=O)O [Example I-343] | Setaria viridis (SETVI) | % | 90
COC(=O)C(C)COC(=O)[C@@H](C)Oc1nn(-c2ccccn2)c(-c2cncc(F)c2)c1Br (stereo partly drawn) [Example I-188] | Setaria viridis (SETVI) | % | 80
COC(=O)[C@@H](C)Oc1nn(-c2ncccc2F)c(-c2cncc(F)c2)c1I [Example I-197] | Setaria viridis (SETVI) | % | 90

Problem: Give the measured Post-emergence action against SETVI in % for COC(=O)[C@@H](C)Oc1nn(-c2ncccc2F)c(-c2ccc(F)nc2)c1C(F)(F)F [Example I-331]
Solution: 90

Problem: Return the recorded Post-emergence action against SETVI in % value; entry: C[C@@H](Oc1nn(-c2ccccn2)c(-c2cncc(F)c2)c1Br)C(=O)O [Example I-79]
Solution: 80

====

System: Matricaria inodora (MATIN)
Assay: Post-emergence herbicidal action against MATIN
Format: in vivo
Settings: dosage 320 g/ha
recordedMetric: Post-emergence action against MATIN in % (%)
# output: bare number, implied unit %

molecule | valueUnit | Post-emergence action against MATIN in %
O=C(O)COc1nn(-c2ccccn2)c(-c2ccc(Cl)nc2)c1Cl [Example I-236] | % | 80
COC(=O)[C@@H](C)Oc1nn(-c2nc(F)ccc2F)c(-c2ccc(F)nc2)c1C1CC1 [Example I-298] | % | 80
COC(=O)[C@H](C)COC(=O)COc1nn(-c2ccccn2)c(-c2cncc(F)c2)c1Cl [Example I-192] | % | 80
COC(=O)CCOC(=O)COc1nn(-c2cccnc2C)c(-c2cncc(F)c2)c1Br [II-41] | % | 80
CCOC(=O)COc1nn(-c2ncccc2F)c(-c2ccc(F)nc2)c1F [Example I-354] | % | 80
C[C@@H](Oc1nn(-c2ccccn2)c(-c2cncc(F)c2)c1Cl)C(=O)O [Example I-218] | % | 80
C[C@@H](Oc1nn(-c2ncccc2F)c(-c2cncc(F)c2)c1Cl)C(=O)O [Example I-165] | % | 90
N#CCOC(=O)COc1nn(-c2ncccc2F)c(-c2ccc(F)nc2)c1C1CC1 [Example I-294] | % | 90
O=C(O)COc1nn(-c2ccccn2)c(-c2ccc(F)nc2)c1Cl [Example I-266] | % | 90
COC(=O)[C@@H](C)Oc1nn(-c2nc(F)ccc2F)c(-c2cncc(F)c2)c1C1CC1 [Example I-171] | % | 90

Problem: Fill in Post-emergence action against MATIN in % for record CCOC(=O)COc1nn(-c2ncccc2C)c(-c2cncc(F)c2)c1Br [Example I-211]
Solution: 80

Problem: Report measured Post-emergence action against MATIN in %; entry is Cc1ncccc1-n1nc(OCC(=O)O)c(Cl)c1-c1cncc(F)c1 [II-42]
Solution: 80

Problem: Report Post-emergence action against MATIN in % for CCOC(=O)[C@@H](C)Oc1nn(-c2ncccc2F)c(-c2cncc(F)c2)c1Br [Example I-227]
Solution: 90

Problem: Answer with the recorded Post-emergence action against MATIN in % of COC(=O)C(C)COC(=O)[C@@H](C)Oc1nn(-c2ccccn2)c(-c2cncc(F)c2)c1Cl (stereo partly drawn) [Example I-198] only.
Solution: 80

====

Tested on: Alopecurus myosuroides (ALOMY)
Experiment: Post-emergence herbicidal action against ALOMY
Format: in vivo
Settings: 80 g/ha, visual rating about 3 weeks after treatment vs untreated controls (100% = plants have died, 0% = like control plants)
recordedMetric: Post-emergence action against ALOMY in % (%)
Express your answer in %, writing the number without its unit.

molecule | assayValue
COCCOCCOC(=O)COc1nn(-c2ncccc2F)c(-c2ccc(F)nc2)c1Br | 90
CCOC(=O)COc1nn(-c2nc(F)ccc2F)c(-c2ccc(F)nc2)c1Br | 80
C[C@@H](Oc1nn(-c2ncccc2F)c(-c2cncc(F)c2)c1C1CC1)C(=O)O | 90
COC(=O)CCOC(=O)C(C)Oc1nn(-c2ccccn2)c(-c2ccc(F)nc2)c1C(F)(F)F (centres unmarked) | 90
COC(=O)[C@@H](C)Oc1nn(-c2ccccn2)c(-c2cncc(F)c2)c1Br | 100
COC(=O)C(C)NC(=O)[C@@H](C)Oc1nn(-c2ccccn2)c(-c2cncc(F)c2)c1Br (some centres unmarked) | 80
COC(=O)CSc1nn(-c2ccccn2)c(-c2cncc(F)c2)c1Br | 80
CCOC(=O)COc1nn(-c2ncccc2F)c(-c2ccc(F)nc2)c1Cl | 100
CCOC(=O)COc1nn(-c2ccccn2)c(-c2ccc(F)nc2)c1Br [Example I-86] | 100
O=C(O)COc1nn(-c2ccccn2)c(-c2cncc(F)c2)c1Br | 80

Turning now to a further record.
Problem: Fill in Post-emergence action against ALOMY in % for record `CC(C)N(C)S(=O)(=O)NC(=O)COc1nn(-c2ncccc2F)c(-c2ccc(F)nc2)c1Br`
Solution: 90

====

System: Oryza sativa (ORYSA)
Format: in vivo
Settings: pre-emergence, 80 g/ha, crop plant compatibility, in comparison to untreated controls
recordedMetric: Pre-emergence action against ORYSA in % (%)
The answer is to be given in %; state only the numeric part.

# annotated cases, reported Pre-emergence action against ORYSA in % shown
compound | Pre-emergence action against ORYSA in % [%]
O=C(COc1nn(-c2ccccn2)c(-c2ccc(F)nc2)c1Cl)NS(=O)(=O)CC(F)(F)F | 10
COC(=O)C=CC(C)NC(=O)COc1nn(-c2ccccn2)c(-c2ccc(F)nc2)c1Br (centres unmarked) [Example I-297] | 10
O=C(O)C1CCN(C(=O)COc2nn(-c3ccccn3)c(-c3ccc(F)nc3)c2Br)CC1 | 0
CCOC(=O)CN(C)S(=O)(=O)NC(=O)COc1nn(-c2ccccn2)c(-c2ccc(F)nc2)c1Br | 0
COC(=O)[C@@H](C)Oc1nn(-c2ccc(F)cn2)c(-c2ccc(F)nc2)c1Br | 20
CCOC(=O)CSc1nn(-c2ccccn2)c(-c2cncc(F)c2)c1I | 20
C#CCOC(=O)COc1nn(-c2ccccn2)c(-c2ccc(F)nc2)c1Br | 10
COC(=O)COc1nn(-c2ncccc2Cl)c(-c2ccc(F)nc2)c1Br | 0

Problem: Dear colleague, please send me the reported Pre-emergence action against ORYSA in % for O=C(COc1nn(-c2ccccn2)c(-c2ccc(F)nc2)c1Br)OCC1CCOC1 (centres unmarked) when you can.
Solution: 10

Problem: Fill in Pre-emergence action against ORYSA in % for record `O=C(O)COc1nn(-c2nc(F)ccc2F)c(-c2ccc(F)nc2)c1C1CC1`
Solution: 20

Problem: Indicate its recorded Pre-emergence action against ORYSA in %; the compound in question is `O=C(O)COc1nn(-c2ccccn2)c(-c2ccc(F)nc2)c1C(F)(F)F`
Solution: 0

Problem: Item `O=C(O)COc1nn(-c2ncccc2C(F)(F)F)c(-c2ccc(F)nc2)c1Br` : provide Pre-emergence action against ORYSA in %
Solution: 0

Problem: Using the record for `CCOC(=O)COc1nn(-c2ccccn2)c(-c2ccc(F)nc2)c1C1CC1` , state its measured Pre-emergence action against ORYSA in %.
Solution: 0

Problem: Please give measured Pre-emergence action against ORYSA in % of the following entry: `COCCOC(=O)[C@@H](C)Oc1nn(-c2ncccc2F)c(-c2ccc(F)nc2)c1Br`
Solution: 20

Problem: Consider the compound `CCOC(=O)CCNC(=O)CSc1nn(-c2ccccn2)c(-c2cncc(F)c2)c1Br` and give its recorded Pre-emergence action against ORYSA in %.
Solution: 0

Problem: Look up Pre-emergence action against ORYSA in % of `CCOC(=O)COc1nn(-c2ccnc(F)c2)c(-c2ccc(F)nc2)c1Br` and report it.
Solution: 0

Problem: Tell me measured Pre-emergence action against ORYSA in % for `CCOC(=O)CSc1nn(-c2ccccn2)c(-c2cncc(F)c2)c1Br` please.
Solution: 10

Problem: Please report the measured Pre-emergence action against ORYSA in % for `COC(=O)[C@H](C)NC(=O)COc1nn(-c2ccnc(Cl)c2)c(-c2ccc(F)nc2)c1Br`
Solution: 0

Problem: Indicate the recorded Pre-emergence action against ORYSA in % value for this compound: `CCOC(=O)COc1nn(-c2ccccn2)c(-c2ccc(F)nc2)c1I`
Solution: 0

Problem: For COC(=O)C1CCCN1C(=O)COc1nn(-c2ccccn2)c(-c2ccc(F)nc2)c1Br (centres unmarked) , write its Pre-emergence action against ORYSA in %.
Solution: 10

Problem: Look up and state reported Pre-emergence action against ORYSA in % for CCOC(=O)C(C)Oc1nn(-c2ccccn2)c(-c2ccc(F)nc2)c1Br (racemic)
Solution: 0

Problem: Find the measured Pre-emergence action against ORYSA in % of `CCOC(=O)C1CCN(C(=O)COc2nn(-c3ccccn3)c(-c3ccc(F)nc3)c2Br)CC1` and report it.
Solution: 0

Problem: Identify Pre-emergence action against ORYSA in % associated with the compound `COC(=O)[C@@H](C)NC(=O)COc1nn(-c2ccccn2)c(-c2ccnc(F)c2)c1Br`
Solution: 20

Problem: Input COC(=O)C=CC(C)NC(=O)COc1nn(-c2ccccn2)c(-c2ccc(F)nc2)c1Br (centres unmarked) [Example I-345] , output reported Pre-emergence action against ORYSA in %.
Solution: 10

Problem: Find the measured Pre-emergence action against ORYSA in % of `O=C(O)COc1nn(-c2ncccc2Cl)c(-c2ccc(F)nc2)c1Br` and report it.
Solution: 0

Problem: Fill in reported Pre-emergence action against ORYSA in % for this entry: `O=C(CSc1nn(-c2ccccn2)c(-c2cncc(F)c2)c1Br)NS(=O)(=O)c1ccccc1`
Solution: 20

Problem: Supply measured Pre-emergence action against ORYSA in % of `COC(=O)CCOC(=O)COc1nn(-c2ccnc(F)c2)c(-c2ccc(F)nc2)c1Br` in your reply.
Solution: 0

Problem: Indicate the recorded Pre-emergence action against ORYSA in % value for this compound: `O=C(O)COc1nn(-c2ccccn2)c(-c2ccc(F)nc2)c1I`
Solution: 0
